Would you kindly list Ki for each of these binders?
MEASURED_TARGET: recombinant thrombin
METHOD: selectivity inhibition assay
Starred links: 1 amine or outer side, 2 acyl side, 3 side chain; linkers in the order of their positions; H or OH if unused. *: point of attachment. Kbt‑6‑CONH = ketobenzothiazole-6-CONH (amide link to Val), O=C(c1ccc2nc([*:1])sc2c1)[*:2]; kbt = C-terminal ketobenzothiazole, c1ccc2sc(*)nc2c1; Kbt = ketobenzothiazole, c1ccc2sc(*)nc2c1

Query: Query (binder): Ac-SKLR-{kbt‑6‑CO-Val-NH2} [Ac-SKLR(SEQ ID NO: 10)-Kbt-Val-NH2] ; field requested: Ki
Reply: 4500 nM

Query: Another binder: H-Arg-Leu-Arg-{kbt-Val-NH2} [H-RLR-kbt-Val-NH2]
Reply: 548 nM

Query: Another binder: Ac-KRLR-{Kbt‑6‑CONH-Val-NH2} [Ac-KRLR(SEQ ID NO: 8)-Kbt-Val-NH2]
Reply: 1560 nM

Query: Another binder: H-Trp-Leu-Arg-kbt [H-WLR-kbt]
Reply: 457 nM

Query: Another binder: Ac-FLFR-Kbt (SMILES CC(=O)N[C@@H](Cc1ccccc1)C(=O)N[C@@H](CC(C)C)C(=O)N[C@@H](Cc1ccccc1)C(=O)N[C@@H](CCCNC(=N)N)C(=O)c1nc2ccccc2s1) [Ac-FLFR(SEQ ID NO: 19)-Kbt]
Reply: > 20000 nM

Cited source: patent US20180066015A1
